# System: SW-620 colon
# TEST PROTOCOL: NCI tumour cell line growth inhibition, 48 h; in the data active means GI50 below about 0.43 µM; inactive means the rest
Bench note: report the call from class 1 (active), class 0 (inactive)

Please review the entries below; each comes with its answer.
O=C1OCC2=C1C(c1cccc(F)c1)c1cc3c(cc1N2CCO)CCC3 (stereo unspecified) ... class 1
COc1ccc2c(c1)N(CCO)C1=C(C(=O)OC1)C2c1cc(OC)c(OC)c(OC)c1 (stereo unspecified) ... class 1
Nc1ccc2c(c1)Cc1cc(Cl)c(Cl)cc1-2 ... class 0

How did this test come out for "COc1cc2c(cc1O)N=C[C@@H]1C[C@@H](F)CN1C2=O" ? class 0

How did this test come out for Cn1nc(-c2cccs2)cc1/N=C(\N)C(C)(C#N)Cc1ccccc1 (stereo unspecified) ? class 0

How did this test come out for "COc1ccc(C2=C(c3cn(C)c4ccccc34)C(=O)NC2=O)cc1" ? class 0

How did this test come out for "CC[C@]12C=CCN3CC[C@]4(C(=C(C(=O)OC)C1)Nc1cc(OC)c(OC(C)=O)cc14)[C@@H]32" ? class 1

How did this test come out for "O=c1c2cc(I)ccc2nc(-c2cccs2)n1-c1ccc(S(=O)(=O)Nc2nccs2)cc1" ? class 0

How did this test come out for "CC#Cc1nc2ccccc2c(=O)[nH]1" ? class 0

How did this test come out for "CCOC(=O)c1ccc2c(c1)c1c(C)c3ccncc3c(C)c1n2C" ? class 1

How did this test come out for "Cn1cc(C2=C(Sc3ccccc3)C(=O)NC2=O)c2ccccc21" ? class 0

How did this test come out for "Ic1ccc2[nH]cc(SSc3c[nH]c4ccc(I)cc34)c2c1" ? class 0

---

# Tested on: KM12 colon
# TEST PROTOCOL: NCI tumour cell line growth inhibition, 48 h; in the data active means GI50 below about 0.43 µM; inactive means the rest
Bench note: report the call from active, inactive

Please review the entries below; each comes with its answer.
CCN1CCN(c2cc(C)nc(N(CCCNc3ccnc4cc(Cl)ccc34)Cc3cccs3)n2)CC1 ... inactive
CC1=C(SCCC(=O)OCC(=O)NCCC[Te]c2ccccc2)C(=O)c2ccccc2C1=O ... inactive
Cc1cc(C)c(CNC(=O)c2cc(-c3ccc(CN4CCOCC4)cc3)cc3c2cnn3C2CCCC2)c(=O)[nH]1 ... inactive
CCc1c2c(nc3ccc(O)cc13)-c1cc3c(c(=O)n1C2)COC(=O)[C@]3(O)CC ... active
CC#Cc1nc2ccccc2c(=O)[nH]1 ... inactive

How did this test come out for "O=C1C=CC(=O)c2c1c1c(c3c2C2c4ccccc4C3c3ccccc32)C2c3ccccc3C1c1ccccc12" ? inactive

How did this test come out for "CC(C)(C)N=Cc1ccccc1[O-].CC(C)(C)N=Cc1ccccc1[O-].[Co+2]" ? inactive

How did this test come out for C=C(C)[C@@H]1CC[C@]2(CNCCO)CC[C@]3(C)[C@H](CC[C@@H]4[C@@]5(C)CCC(N)[C@@](C)(CO)[C@@H]5CC[C@]43C)[C@@H]12 (stereo partly specified) ? inactive

How did this test come out for "COc1cc(OC)cc(Oc2nc3cc(N)cc(N)c3nc2-c2ccccc2)c1" ? inactive

How did this test come out for Cn1nc(-c2cccs2)cc1/N=C(\N)C(C)(C#N)Cc1ccccc1 (stereo unspecified) ? inactive

How did this test come out for CC(=O)OCC1OC(OC2=C(CC=C(C)C)C(=O)c3ccccc3C2=O)C(OC(C)=O)C(OC(C)=O)C1OC(C)=O (stereo unspecified) ? inactive

---

# Test system: SF-295 CNS
# TEST PROTOCOL: NCI tumour cell line growth inhibition, 48 h
MEASURE: TGI

C/C(=N\NC(=S)NCCNC(=S)N/N=C(\C)c1ccccn1)c1ccccn1 ... > 100 µM
Cc1cccc(NC(=O)c2sc3nc4c(cc3c2N)CCCC4)c1 ... 23.8 µM

Please report the recorded TGI for CC12CCC(C(=O)n3c1nc1ccccc13)C(C)(C)O2 (stereo unspecified) . > 100 µM

Please report the recorded TGI for CN1CC[C@]2(C)c3c(O)cccc3CC3CCCC1C32C (stereo partly specified) . > 100 µM

Please report the recorded TGI for "COC(=O)[C@@H](Nc1ccccc1)[C@@]1(C(=O)OC)SC12c1ccccc1-c1ccccc12" . > 100 µM

Please report the recorded TGI for "O=C1/C(=C\c2ccc(Br)cc2)CN(C(=O)c2ccccc2F)C/C1=C\c1ccc(Br)cc1" . 5.64 µM

---

# Tested on: NCI/ADR-RES ovarian
# TEST PROTOCOL: NCI tumour cell line growth inhibition, 48 h; in the data active = GI50 below about 0.43 µM; inactive = the rest
Bench note: report the call from active, inactive

Please review the entries below; each comes with its answer.
COC1C(CO)OC(n2c3ccccc3c3c4c(c5c6ccccc6[nH]c5c32)C(=O)NC4=O)C(OC(=O)C(N)CCCCN)C1O (configuration not stated) ... inactive
Cn1nc(-c2cccs2)cc1/N=C(\N)C(C)(C#N)Cc1ccccc1 (configuration not stated) ... inactive
CC#Cc1nc2ccccc2c(=O)[nH]1 ... inactive

Alright, here's another molecule for you.
How did this test come out for "CC[C@]12C=CCN3CC[C@]4(C(=C(C(=O)OC)C1)Nc1cc(OC)c(OC(C)=O)cc14)[C@@H]32" ? active

---

# System: A549 NSCLC
# TEST PROTOCOL: NCI tumour cell line growth inhibition, 48 h
MEASURE: TGI

Check out these entries, answers already filled in.
CN(C)C=C1C(=O)N(C)C(=O)N(C)C1=O ... > 100 µM
Cn1c(-c2ccc(/C=N/N=C/c3ccc(-c4c[n+]5ccccc5n4C)cc3)cc2)c[n+]2ccccc12 ... > 100 µM

Please report the recorded TGI for "N#CC(C#N)=C/C=C(\Sc1ccc(F)c(Cl)c1)c1ccc(Cl)cc1" . 12.7 µM

Please report the recorded TGI for "COc1cc(OC)cc(Oc2nc3cc(N)cc(N)c3nc2-c2ccccc2)c1" . 13.2 µM

---

# System: OVCAR-5 ovarian
# TEST PROTOCOL: NCI tumour cell line growth inhibition, 48 h
// reported TGI for each item listed

Check out these entries, answers already filled in.
CCOC(=O)C=C1CCC2(CC1)OCCO2 ... > 100 µM
O=C(OC(CNc1c(C(=O)c2ccccc2)c(=O)n(Cc2ccccc2)c(=O)n1Cc1ccccc1)CN1CCOCC1)c1ccccc1 (centres undefined) ... > 100 µM
COc1cc(Nc2cc(C)nc(N3CCN(c4ccnc5cc(Cl)ccc45)CC3)n2)cc(OC)c1 ... > 100 µM

What value of TGI on OVCAR-5 ovarian does "N#CCCC1(CCC#N)CCc2ccccc2C1=O" have? > 100 µM

What value of TGI on OVCAR-5 ovarian does Nc1nc2c(c3cnccc13)C(c1cccc(Br)c1)Cc1cnccc1-2 (centres undefined) have? 21.8 µM

What value of TGI on OVCAR-5 ovarian does "Cn1cc(C2=C(Sc3ccccc3)C(=O)NC2=O)c2ccccc21" have? > 25 µM

What value of TGI on OVCAR-5 ovarian does "COc1c(OCCCN2CCOCC2)ccc2c3n(c(=NC(=O)c4cnc(N)nc4)nc12)CCN3" have? > 100 µM

What value of TGI on OVCAR-5 ovarian does "CC1=C(C(=O)CC(=O)C(=O)Nc2cccc(Cl)c2C)Sc2ccccc2N1" have? > 100 µM

What value of TGI on OVCAR-5 ovarian does "O=c1c2cc(I)ccc2nc(-c2cccs2)n1-c1ccc(S(=O)(=O)Nc2nccs2)cc1" have? > 100 µM

---

# System: NCI-H522 lung
# TEST PROTOCOL: NCI tumour cell line growth inhibition, 48 h; in the data active = GI50 below about 0.43 µM; inactive = the rest
Bench note: report the call from 1 = active, -1 = inactive

Please review the entries below; each comes with its answer.
Nc1ccc2c(c1)Cc1cc(Cl)c(Cl)cc1-2 ... -1
O=c1c2cc(I)ccc2nc(-c2cccs2)n1-c1ccc(S(=O)(=O)Nc2nccs2)cc1 ... -1
CCOC(=O)c1cc(C(=O)c2ccc(Cl)cc2)n2ccc(-c3cc[n+](CC(=O)c4ccc(OC)cc4)cc3)cc12 ... -1
CC(C)(C)c1[nH]nc2c1C(c1cc3ccccc3[nH]c1=O)Nc1cc(C(=O)Nc3ccc(Cl)cc3)ccc1N2 (configuration not stated) ... -1

How did this test come out for "COc1cc2c3c(n(CCCN=[N+]=[N-])c(=O)c2cc1OC)-c1ccc(C#N)cc1C3=O" ? -1

How did this test come out for COc1cccc2c1C(CO)N1C(C#N)C3CC(C(=O)O)C(C1C2)N3C (configuration not stated) ? 1

How did this test come out for "Nc1nc(-c2cccc3ccccc23)cc2ccccc12" ? 1

---

# Tested on: DU-145 prostate
# TEST PROTOCOL: NCI tumour cell line growth inhibition, 48 h; in the data active = GI50 below about 0.43 µM; inactive = the rest
Bench note: report the call from active, inactive

COc1cc(-n2cncc2-c2ccc3ccccc3c2)cc(OC)c1OC ... active
CC(C)(C)c1[nH]nc2c1C(c1cc3ccccc3[nH]c1=O)Nc1cc(C(=O)Nc3ccc(Cl)cc3)ccc1N2 (stereo not drawn) ... inactive
CC1=C(SCCC(=O)OCC(=O)NCCC[Te]c2ccccc2)C(=O)c2ccccc2C1=O ... inactive
COc1cc(C(=O)/C=C/c2c(-c3cccs3)nc3sc(C)cn23)cc(OC)c1OC ... inactive

Alright, here's another compound for you.
How did this test come out for COc1ccc2c(c1)N(CCO)C1=C(C(=O)OC1)C2c1cc(OC)c(OC)c(OC)c1 (stereo not drawn) ? active
